testedOn: 5-hydroxytryptamine receptor 6 (Homo sapiens)
test: Antagonist activity at human recombinant 5HT6 receptor expressed in CHO cells assessed as inhibition of 5HT-induced luciferase activity after 4 hrs by reporter gene assay relative to control
Format: functional, cell-based
Measured Imax by item

| inputSmiles | uom | Imax |
| --- | --- | --- |
| COc1ccc(S(=O)(=O)n2cc(C)c3ccc(Cl)cc32)cc1NC1CCN(C)CC1 | % | 100 |
| CCc1ccc(S(=O)(=O)n2ccc3cc(F)ccc32)cc1NC1CCN(C)CC1 | % | 95 |
| COc1ccc2ccn(S(=O)(=O)c3ccc(Cl)c(NC4CCN(C)CC4)c3)c2c1 | % | 100 |
| COc1ccc2ccn(S(=O)(=O)c3cccc(NC4CCN(C)CC4)c3)c2c1 | % | 100 |
| CN1CCC(Nc2cc(S(=O)(=O)n3ccc4ccccc43)ccc2F)CC1 | % | 100 |
| COc1ccc(S(=O)(=O)N2CCOc3ccc(F)cc32)cc1NC1CCN(C)CC1 | % | 100 |
| COc1ccc(S(=O)(=O)n2cc(C)c3nc(Cl)ccc32)cc1NC1CCN(C)CC1 | % | 98 |
| CN1CCC(Nc2cc(S(=O)(=O)n3ccc4cc(Br)ccc43)ccc2F)CC1 | % | 94 |
| COc1ccc(S(=O)(=O)N2CC(C)(C)Oc3ccc(F)cc32)cc1NC1CCN(C)CC1 | % | 100 |
| COc1ccc(S(=O)(=O)n2ccc3cc(F)ccc32)cc1NC1CCNCC1 | % | 100 |
| Cc1ccc(S(=O)(=O)n2ccc3cc(F)ccc32)cc1NC1CCN(C)CC1 | % | 97 |
